- Test system: KHOS-240S
- PROCEDURE SUMMARY: standardised AUC of viability dose-response curve (72 h) (fraction (0-1)); higher = less growth inhibition (more resistant)

{"STRUCTURE NOTATION": "C=CC(=O)Nc1cccc(Oc2nc(Nc3ccc(N4CCN(C)CC4)cc3)nc3ccsc23)c1", "standardised AUC": 0.954}
{"STRUCTURE NOTATION": "Cc1ccc(NC(=O)c2ccc(CN3CCN(C)CC3)cc2)cc1Nc1nc(-c2cccnc2)cs1", "standardised AUC": 0.853}
{"STRUCTURE NOTATION": "CC(=O)Nc1cccc(-n2c(=O)n(C3CC3)c(=O)c3c(Nc4ccc(I)cc4F)n(C)c(=O)c(C)c32)c1", "standardised AUC": 0.783}
{"STRUCTURE NOTATION": "C[C@@H](c1ccc2nccn2c1)n1nnc2ncc(-c3cnn(C)c3)nc21", "standardised AUC": 1}
{"STRUCTURE NOTATION": "CO[C@H]1C[C@@H]2CC[C@@H](C)[C@@](O)(O2)C(=O)C(=O)N2CCCC[C@H]2C(=O)O[C@H]([C@H](C)C[C@@H]2CC[C@@H](OP(C)(C)=O)[C@H](OC)C2)CC(=O)[C@H](C)/C=C(\\C)[C@@H](O)[C@@H](OC)C(=O)[C@H](C)C[C@H](C)/C=C/C=C/C=C/1C", "standardised AUC": 0.867}
{"STRUCTURE NOTATION": "CC(C)N1CCN(Cc2cnc(-c3cc(-c4cccc5[nH]ccc45)cc4[nH]ncc34)o2)CC1", "standardised AUC": 0.944}

====

- Test system: SYO-1
- PROCEDURE SUMMARY: relative viability vs DMSO control (72 h) (fraction); higher = more viable cells
- CONDITION PARAMETERS: 10 µM
Where a name gives a salt, the structure may show the parent alone.
Please note: relative viability exactly at 0.1 is not satisfied. Only values below 0.1 get satisfied.

{"COMPOUND": "Cc1cnc(Nc2ccc(OCCN3CCCC3)cc2)nc1Nc1cccc(S(=O)(=O)NC(C)(C)C)c1", "CLASS LABEL": "satisfied"}
{"COMPOUND": "CCCS(=O)(=O)Nc1ccc(F)c(C(=O)c2c[nH]c3ncc(-c4ccc(Cl)cc4)cc23)c1F", "CLASS LABEL": "not satisfied"}
{"COMPOUND": "Cc1cc(C)c(/C=C2\\C(=O)Nc3ccccc32)[nH]1", "CLASS LABEL": "not satisfied"}
{"COMPOUND": "CC(C)(C)c1cc(NC(=O)Nc2ccc(-c3cn4c(n3)sc3cc(OCCN5CCOCC5)ccc34)cc2)no1", "CLASS LABEL": "not satisfied"}
{"COMPOUND": "COCc1c(-c2cc3cc(C)cc(OC)c3s2)c2c(N)ncnn2c1CN1CCNC(=O)C1", "CLASS LABEL": "not satisfied"}
{"COMPOUND": "COc1cccc2c1C(=O)c1c(O)c3c(c(O)c1C2=O)C[C@@](O)(C(=O)CO)C[C@@H]3O[C@H]1C[C@H](N)[C@H](O)[C@H](C)O1 [Doxorubicin Hydrochloride]", "CLASS LABEL": "satisfied"}
{"COMPOUND": "N#CC[C@H](C1CCCC1)n1cc(-c2ncnc3[nH]ccc23)cn1", "CLASS LABEL": "not satisfied"}

====

// reported relative viability per item
- System: SW684
- PROCEDURE SUMMARY: relative viability vs DMSO control (72 h) (fraction); higher = more viable cells
- CONDITION PARAMETERS: 0.00017 µM
ATTRIBUTE MEASURED: relative viability

{"STRUCTURE NOTATION": "COCc1c(-c2cc3cc(C)cc(OC)c3s2)c2c(N)ncnn2c1CN1CCNC(=O)C1", "ATTRIBUTE MEASURED": "relative viability", "ASSAY VALUE": 1.11}
{"STRUCTURE NOTATION": "COc1cc2c(Oc3ccc4[nH]c(C)cc4c3F)ncnc2cc1OCCCN1CCCC1", "ATTRIBUTE MEASURED": "relative viability", "ASSAY VALUE": 1.18}
{"STRUCTURE NOTATION": "CCN1CCN(Cc2ccc(Nc3ncc(F)c(-c4cc(F)c5nc(C)n(C(C)C)c5c4)n3)nc2)CC1", "ATTRIBUTE MEASURED": "relative viability", "ASSAY VALUE": 1.13}
{"STRUCTURE NOTATION": "Cc1cnc(Nc2ccc(OCCN3CCCC3)cc2)nc1Nc1cccc(S(=O)(=O)NC(C)(C)C)c1", "ATTRIBUTE MEASURED": "relative viability", "ASSAY VALUE": 1.12}
{"STRUCTURE NOTATION": "COc1cc2nccc(Oc3ccc(NC(=O)Nc4cc(C)on4)c(Cl)c3)c2cc1OC", "ATTRIBUTE MEASURED": "relative viability", "ASSAY VALUE": 1.17}
{"STRUCTURE NOTATION": "CC(=O)Nc1cccc(-n2c(=O)n(C3CC3)c(=O)c3c(Nc4ccc(I)cc4F)n(C)c(=O)c(C)c32)c1", "ATTRIBUTE MEASURED": "relative viability", "ASSAY VALUE": 1.16}
{"STRUCTURE NOTATION": "CC[C@H](Nc1ncnc2[nH]cnc12)c1nc2cccc(F)c2c(=O)n1-c1ccccc1", "ATTRIBUTE MEASURED": "relative viability", "ASSAY VALUE": 1.18}
{"STRUCTURE NOTATION": "Cc1nc(NC(=O)N2CCC[C@H]2C(N)=O)sc1-c1ccnc(C(C)(C)C(F)(F)F)c1", "ATTRIBUTE MEASURED": "relative viability", "ASSAY VALUE": 1.09}

====

- System: SW872
- PROCEDURE SUMMARY: relative viability vs DMSO control (72 h) (fraction); higher = more viable cells
- CONDITION PARAMETERS: 0.3704 µM
// assign 1 (yes) if relative viability falls strictly below 0.8, else 0 (no) (ties count as 0 (no))

{"MOLECULE": "CC1(C)CNc2cc(NC(=O)c3cccnc3NCc3ccncc3)ccc21 [Motesanib]", "CLASS LABEL": "0 (no)"}
{"MOLECULE": "Nc1cc(C(F)(F)F)c(-c2cc(N3CCOCC3)nc(N3CCOCC3)n2)cn1 [Buparlisib]", "CLASS LABEL": "1 (yes)"}
{"MOLECULE": "CO[C@H]1C[C@@H]2CC[C@@H](C)[C@@](O)(O2)C(=O)C(=O)N2CCCC[C@H]2C(=O)O[C@H]([C@H](C)C[C@@H]2CC[C@@H](OP(C)(C)=O)[C@H](OC)C2)CC(=O)[C@H](C)/C=C(\\C)[C@@H](O)[C@@H](OC)C(=O)[C@H](C)C[C@H](C)/C=C/C=C/C=C/1C [Ridaforolimus]", "CLASS LABEL": "1 (yes)"}
{"MOLECULE": "O=C(Nc1cnn2ccc(N3CCC[C@@H]3c3cc(F)ccc3F)nc12)N1CC[C@H](O)C1 [Larotrectinib]", "CLASS LABEL": "0 (no)"}
{"MOLECULE": "CCN1CCN(Cc2ccc(Nc3ncc(F)c(-c4cc(F)c5nc(C)n(C(C)C)c5c4)n3)nc2)CC1 [Abemaciclib]", "CLASS LABEL": "1 (yes)"}
{"MOLECULE": "Cc1ccc(F)c(NC(=O)Nc2ccc(-c3cccc4[nH]nc(N)c34)cc2)c1 [Linifanib]", "CLASS LABEL": "0 (no)"}

====

- System: SW1353
- PROCEDURE SUMMARY: relative viability vs DMSO control (72 h) (fraction); higher = more viable cells
- CONDITION PARAMETERS: 0.00152 µM
Recorded relative viability by entry
ATTRIBUTE MEASURED: relative viability

{"COMPOUND": "Cc1ccc(F)c(NC(=O)Nc2ccc(-c3cccc4[nH]nc(N)c34)cc2)c1 [Linifanib]", "ATTRIBUTE MEASURED": "relative viability", "ASSAY VALUE": 1.02}
{"COMPOUND": "CNC(=O)c1cc(Oc2ccc(NC(=O)Nc3ccc(Cl)c(C(F)(F)F)c3)c(F)c2)ccn1 [Regorafenib]", "ATTRIBUTE MEASURED": "relative viability", "ASSAY VALUE": 1.07}
{"COMPOUND": "CC(C)NC(=O)C1CCC(n2c(NC(=O)c3ccc(F)cc3)nc3ccc(CN4CCC(C(C)(C)O)CC4)cc32)CC1 (stereo not drawn) [Belizatinib]", "ATTRIBUTE MEASURED": "relative viability", "ASSAY VALUE": 1.02}

====

Recorded relative viability, one value per entry.
- System: RD-ES
- PROCEDURE SUMMARY: relative viability vs DMSO control (72 h) (fraction); higher = more viable cells
- CONDITION PARAMETERS: 0.00457 µM
ATTRIBUTE MEASURED: relative viability

{"STRUCTURE NOTATION": "C[C@@H]1CCN(C(=O)CC#N)C[C@@H]1N(C)c1ncnc2[nH]ccc12", "ASSAY VALUE": 0.966}
{"STRUCTURE NOTATION": "CNC(=O)c1cc(Oc2ccc(NC(=O)Nc3ccc(Cl)c(C(F)(F)F)c3)c(F)c2)ccn1", "ASSAY VALUE": 0.975}
{"STRUCTURE NOTATION": "Cc1ccc(NC(=O)c2ccc(CN3CCN(C)CC3)cc2)cc1Nc1nc(-c2cccnc2)cs1", "ASSAY VALUE": 0.965}
{"STRUCTURE NOTATION": "Cn1cnc2c(F)c(Nc3ccc(Br)cc3F)c(C(=O)NOCCO)cc21", "ASSAY VALUE": 0.969}
{"STRUCTURE NOTATION": "CO[C@H]1C[C@@H]2CC[C@@H](C)[C@@](O)(O2)C(=O)C(=O)N2CCCC[C@H]2C(=O)O[C@H]([C@H](C)C[C@@H]2CC[C@@H](OP(C)(C)=O)[C@H](OC)C2)CC(=O)[C@H](C)/C=C(\\C)[C@@H](O)[C@@H](OC)C(=O)[C@H](C)C[C@H](C)/C=C/C=C/C=C/1C", "ASSAY VALUE": 0.804}
{"STRUCTURE NOTATION": "CCc1cc2c(cc1N1CCC(N3CCOCC3)CC1)C(C)(C)c1[nH]c3cc(C#N)ccc3c1C2=O", "ASSAY VALUE": 0.997}
{"STRUCTURE NOTATION": "Cc1cc(Nc2ncnc3ccc(NC4=NC(C)(C)CO4)cc23)ccc1Oc1ccn2ncnc2c1", "ASSAY VALUE": 1}
{"STRUCTURE NOTATION": "O=C(Cc1ccc(-c2ccc(OCCN3CCOCC3)cc2)cn1)NCc1ccccc1", "ASSAY VALUE": 0.996}

The measurements presented in this section are drawn from the supplement of paper PMC10883282.
